Data provenance is patent US6194416A.

target: nicotinic receptors; experiment: Nicotinic channel receptor binding: [3H]-cystine binding to crude synaptic membranes from whole rat brain; details: 1.25 nM [3H-cystine], about 60 min, about 4° C.
Provide the reported Ki of each item.
One number for each entry, in nM.

COMPOUND	NUMERIC VALUE
c1cnc(O[C@H]2CN3CCC[C@@H]2C3)cn1 (relative stereo) [Compound 21]	130
CCCCSc1nccnc1OCCN(C)C [Compound 17]	21400
CCCCSc1nccnc1OC1CN2CCC1CC2 (racemic) [Compound 6]	5490

The following compounds each have a reported value; give each one's Ki.
1. CN(C)CCOc1cnccn1 [Compound 26, 2-(2-Dimethylaminoethoxy)pyrazine]
2. C[N+](C)(C)CCOc1cnccn1 [Compound 27]
3. Clc1cncc(O[C@@H]2CN3CCC[C@H]2C3)n1 (relative stereo) [Compound 22]
4. Clc1nccnc1O[C@H]1CN2CCC[C@@H]1C2 (relative stereo) [Compound 19]
5. CCCCSc1nccnc1OCC[N+](C)(C)C [Compound 18]

130
110
210
2780
580

----------
Target: muscarinic receptors (M1-site, pirenzepine sensitive site) (Rattus norvegicus, UniProt P08482)
Construct: from tissue; host or cells: cerebral cortex membranes of male Wistar rats
Sequence (P08482 1-460): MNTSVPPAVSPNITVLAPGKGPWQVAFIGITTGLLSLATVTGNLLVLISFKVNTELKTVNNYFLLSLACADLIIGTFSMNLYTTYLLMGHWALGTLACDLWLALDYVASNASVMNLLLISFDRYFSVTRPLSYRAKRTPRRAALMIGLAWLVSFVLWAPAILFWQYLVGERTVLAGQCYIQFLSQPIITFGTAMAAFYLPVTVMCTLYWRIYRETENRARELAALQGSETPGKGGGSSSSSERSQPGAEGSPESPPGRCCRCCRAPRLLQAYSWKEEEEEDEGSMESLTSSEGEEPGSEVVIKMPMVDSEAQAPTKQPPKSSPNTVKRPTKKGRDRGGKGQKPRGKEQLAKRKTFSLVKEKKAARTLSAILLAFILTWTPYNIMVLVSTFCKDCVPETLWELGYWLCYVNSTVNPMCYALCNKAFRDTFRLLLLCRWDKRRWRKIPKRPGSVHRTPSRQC
Experiment: Inhibition of 3HPRZ (pirenzepine, [N-methyl-3H]) binding to rat cerebral cortex membranes
Set-up: species or system male Wistar rats
PROPERTY: pIC50
Answers are plain numbers, as −log10 of the molar value.

Briefly, pIC50 measured for CCCCOc1nccnc1O[C@@H]1CN2CCC[C@H]1C2 (relative stereo) [Compound 23] : 8.57
